Experiment: in vitro
Details: human, cem-ss cells

SMILES DATA	viability
CC(=O)O[C@@]12C[C@@H](C)[C@@]3(O)[C@@H](C=C(CO)C[C@]4(O)C(=O)C(C)=C[C@@H]34)[C@@H]1C2(C)C	> 90%
